Reference for the values: the nanobody polyreactivity screen of Harvey et al. (2022)

assay: yeast display, Sf9 membrane polyspecificity reagent, FACS + sequencing; frameworks hold sequencing errors

| seq | polyreactivity (PSR sort gate) |
| --- | --- |
| HVQLQESDGGLVQAGGSLRLSCAASGSISPQYYMCWYRQAPGKEREFVAISKGTTTYYADSVKGRLTISRVNAKNTVYLQMNSLKPEDTAVYCCAAGRWLQKVHAYWDQGTQVTVSS | low polyreactivity |
| QVQLVESGGGLVQAGGSLRLSCAASGIIFRGNAMGWYRQAHGKERELVAAISSAGSTNYADSVKGRFTISRDNAKNTVYLQMNSLKPEVTAVFYCAKGSIKYHVTLRGRGYYWGQGTQVTVSS | low polyreactivity |
| QVQLVESGRGLVQAGGSLRLSCAASGSTFKDYPMGWYRQAPGKESELVARISTRVGSTYYPDSVKGRFTISRDNAKNTVYLQMNRLNPEDTAVFYCNARWWYPPYYYWGQGTQVSVSS | high polyreactivity |
| QVQLVESGGGLVQAGGSLRLSCAASGSIFNVNSMGWYRQAPGKERELVAAISSGGDTYYADSVKGRFTISRDNAKNTVYLQMNSLKPEDTAVYYCAKQSYTLYTLLYDYWGLGTQVTVSS | low polyreactivity |
| QVQLVESGGGLVQAGGSLRLSCAASGSIFARYAMGWYRQAPGKERELVAAINSTVSTNYADSVKGRFTISRDNAKNTVYLQMNSLKPEDTAVYYCAVDIVRGGRDSWGQGTLVTVSS | low polyreactivity |
| QVQLVESGGGLVQAGGSLRLSCAASGRIFSSNAMGSYRQAPGKERELVAGISIRGGSTYYADSVKGRFTISRDNAKNTVYLQMNSLKPEDTAVYYCAKDGRRRRTFDYWGQGTQVTVSS | high polyreactivity |
| QVQLVESGGGLVQAGGSLRLSCAASGFISSINAMGWYRQAPGKERELVAGIRARGTSTYYADSVKGRFTISRDNAKNTVYLQMNSLKPEDTAVYYCAADFTYQGSSANDYWGQGTQVTVSS | low polyreactivity |
| QVQLVESGGGLVQAGGSLRLSCAASGSTFSHNAMGWYRQAPGKERELVAAISWSGVGTYADSVKGRFTISRDNAKNTVYLQMNSLKPEDTAVYYCNKVSYPSTSSSWFDYWGQGTQVTVSS | low polyreactivity |
| QDQLVESGGALVQPGGSLRLSCAASGRLLGRYAMGWYRQAPGKDRELVATITSGDDTNYADSVKGRFTISRDNAKNTVYLQMNSLKPEDTAVGYWGQGTQVTVSS | low polyreactivity |
| QVQLVESGGGLVQAGGSLRLSCAASGSTFFGYTMGWYRQARGKERELVAAITRRGGSTYYADSVKGRFTISRDNAKNTVYLQLNSLKPEDTAVYYCNAVSKSTNYAGRYDYWGQATQVTVSS | high polyreactivity |
| QVQLVESGGGLVQAGGSLRLSCAASGSIFKQNTKGWYRQAPGKERELVAAISSGGSTYYADSVKGRFTISRDNAKNTVYLQMNSLKPEDTAVYYCAKYYDWDYYLPLEGDYWGQGTQVTVSS | low polyreactivity |

---

test: yeast display, Sf9 membrane polyspecificity reagent, FACS + sequencing; frameworks hold sequencing errors
measurement type: polyreactivity (PSR sort gate)

| seq | measurement type | assay result |
| --- | --- | --- |
| QVQLVDSGGGLVQAGGSLRLSCAASGRTFGAYDMGWYRQAPGKERELVAAISSGATTNYADSVKGRFTISRDNAKNTVYLQMNSLKPEDTAVYYCAASVYRYIYAFNYWGQGTQVTVSS | polyreactivity (PSR sort gate) | low polyreactivity |
| QVQLVESGGGLVQAGGSLRLSCAASGFIFGYNAMVWYRQAPGKERELVARINSGGNTNYADSVKGRFTISRDNAKNTVYLQMNSLKPDDTAVYYCARDASNRYDYWGQGTLVTVSS | polyreactivity (PSR sort gate) | low polyreactivity |
| QVQLVESGGGLVQSGGSLRLSCAASGRIFVPNAMGWYRQAPGKERELVAAITGSGGSTYADSVKGRFTISRDNAKNTVYLQMNSLNPEDTAVYYCAKKTWYSYYWGQGTQVTVSS | polyreactivity (PSR sort gate) | high polyreactivity |
| QVQLVESGGGLVQAGGSLRLSCAASGRILPWYAMGWYRQAPGKERELVARIRSTDSTNYADSVKGRFTISRDNAKNTVYLQMNSLKPEDTAVYYCAKVQWGFPYAWLGSDYWGQGTQVTVSS | polyreactivity (PSR sort gate) | low polyreactivity |
| QVQLVESGGGLVQAGGSLRLSCAASGRIFGPYVMGWYRQAPGKERELVAAISTSGTSTYYADSVKGRFTISRDNAKNTVYLQMNSLKPEDTAVYDCGIRSGARHRLMDYWGQGTQVTVSS | polyreactivity (PSR sort gate) | low polyreactivity |
| QVQLVESGGGLVQAGGSLRLSCAASGRTFVPYAMGWYRQAPGKERELVASITWRGGRTYYADSVKGRFTISRDNAKNTVYLQMNSLKPEDTAVYYCAAVGGYASYFHLYYYWGQGTQVTVSS | polyreactivity (PSR sort gate) | high polyreactivity |
